# Test system: 565726-208-R1-J5-PDC complex spheroids, growth inhibition;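 also: spheroids exposed to compounds for seven days before readout; 100% = DMSO vehicle control viability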
# test: Anticancer human tumor 565726-208-R1-J5-PDC patient-derived pancreatic adenocarcinoma cell line growth inhibition [RAS]
# condition-details: second compound 0.003 µM; first compound 0.0316 µM; active compounds read low
reported-property: viability, T/C (%)
Answers are plain numbers, in %.

[
  {
    "compound": "O=C(c1ccc(F)c(F)c1Nc1ccc(I)cc1F)N1CC(O)([C@@H]2CCCCN2)C1 + CCn1c(-c2cccnc2C(C)OC)c2c3cc(ccc31)N1CCOC(CC(NC(=O)C(C(C)C)N(C)C(=O)C3(F)CCN(C(=O)C#CC(C)(C)N(C)C)CC3)C(=O)N3CCCC(N3)C(=O)OCC(C)(C)C2)C1",
    "viability, T/C, %": 71.8
  },
  {
    "compound": "CC(Nc1ccc2c(c1)OCCn1cc(N3C(=O)OCC3C(F)F)nc1-2)C(N)=O (stereo not given) + CCn1c(-c2cc(N3CCN(C)CC3)cnc2C(C)OC)c2c3cc(ccc31)-c1csc(n1)CC(NC(=O)C1CC1C)C(=O)N1CCCC(N1)C(=O)OCC(C)(C)C2",
    "viability, T/C, %": 49.7
  }
]

Here are 6 compounds. What values of viability, T/C were reported for them?
1. CC(=O)OC12COC1CC(O)C1(C)C(=O)C(O)C3=C(C)C(OC(=O)C(O)C(NC(=O)OC(C)(C)C)c4ccccc4)CC(O)(C(OC(=O)c4ccccc4)C21)C3(C)C (stereo not given) + CCn1c(-c2cc(N3CCN(C)CC3)cnc2C(C)OC)c2c3cc(ccc31)-c1csc(n1)CC(NC(=O)C1CC1C)C(=O)N1CCCC(N1)C(=O)OCC(C)(C)C2
2. C[C@@H](NC(=O)c1ncnc(N)c1Cl)c1ncc(C(=O)Nc2cc(C(F)(F)F)c(Cl)cn2)s1 + CCn1c(-c2cccnc2C(C)OC)c2c3cc(ccc31)N1CCOC(CC(NC(=O)C(C(C)C)N(C)C(=O)C3(F)CCN(C(=O)C#CC(C)(C)N(C)C)CC3)C(=O)N3CCCC(N3)C(=O)OCC(C)(C)C2)C1
3. CC(=O)OC12COC1CC(O)C1(C)C(=O)C(O)C3=C(C)C(OC(=O)C(O)C(NC(=O)OC(C)(C)C)c4ccccc4)CC(O)(C(OC(=O)c4ccccc4)C21)C3(C)C (stereo not given) + CCn1c(-c2cccnc2C(C)OC)c2c3cc(ccc31)N1CCOC(CC(NC(=O)C(C(C)C)N(C)C(=O)C3(F)CCN(C(=O)C#CC(C)(C)N(C)C)CC3)C(=O)N3CCCC(N3)C(=O)OCC(C)(C)C2)C1
4. CCN1CCN(Cc2ccc(Nc3ncc(F)c(-c4cc(F)c5nc(C)n(C(C)C)c5c4)n3)nc2)CC1 + CCn1c(-c2cc(N3CCN(C)CC3)cnc2C(C)OC)c2c3cc(ccc31)-c1csc(n1)CC(NC(=O)C1CC1C)C(=O)N1CCCC(N1)C(=O)OCC(C)(C)C2
5. Cc1nc(N2CCC3(CC2)COC(C)C3N)c(CO)nc1Sc1ccnc(N)c1Cl (stereo not given) + CCn1c(-c2cc(N3CCN(C)CC3)cnc2C(C)OC)c2c3cc(ccc31)-c1csc(n1)CC(NC(=O)C1CC1C)C(=O)N1CCCC(N1)C(=O)OCC(C)(C)C2
6. CCC(CC)c1cc(NC2CCC(N)C2)n2nccc2n1 (stereo not given) + CCn1c(-c2cccnc2C(C)OC)c2c3cc(ccc31)N1CCOC(CC(NC(=O)C(C(C)C)N(C)C(=O)C3(F)CCN(C(=O)C#CC(C)(C)N(C)C)CC3)C(=O)N3CCCC(N3)C(=O)OCC(C)(C)C2)C1

[A]
1. 20.4
2. 118
3. 17.4
4. 51.7
5. 51.3
6. 104

Each compound below has a reported value. Please supply its viability, T/C.
1. C=CC(=O)Nc1cc(Nc2nccc(-c3cn(C)c4ccccc34)n2)c(OC)cc1N(C)CCN(C)C + CCn1c(-c2cccnc2C(C)OC)c2c3cc(ccc31)N1CCOC(CC(NC(=O)C(C(C)C)N(C)C(=O)C3(F)CCN(C(=O)C#CC(C)(C)N(C)C)CC3)C(=O)N3CCCC(N3)C(=O)OCC(C)(C)C2)C1
2. Nc1ccn(C2OC(CO)C(O)C2(F)F)c(=O)n1 (stereo not given) + CCn1c(-c2cccnc2C(C)OC)c2c3cc(ccc31)N1CCOC(CC(NC(=O)C(C(C)C)N(C)C(=O)C3(F)CCN(C(=O)C#CC(C)(C)N(C)C)CC3)C(=O)N3CCCC(N3)C(=O)OCC(C)(C)C2)C1

[A]
1. 89
2. 69.2

Source of measurements: PubChem BioAssay AID2060899
